# Tested on: NCI-H23 lung
# PROTOCOL_DETAILS: NCI-60 one-dose screen, 48 h (100 = growth as untreated, 0 = no growth, -100 = all killed)
# RUN_CONDITIONS: 10 µM unless noted
This is part of a sample that, as a whole, favours compounds with a hit. Of some 83,000 tested, about 20% had one in any assay. The source made the active and inactive calls. How the source made its calls: active means growth percent below 10; inactive means the rest.

MOLECULE | ASSAY_TARGET | growth
O=C(Cc1ccc(/C=C/C(=O)c2ncc[nH]2)cc1)Nc1cc(C(F)(F)F)cc(C(F)(F)F)c1 | NCI-H23 lung | 93.9% (inactive)
C=C1C(=O)O[C@H]2[C@H]1CC/C(COC(=O)/C=C\C(=O)NCc1ccc(Cn3c(=O)sn(CCCl)c3=O)cc1)=C\CC[C@@]1(C)O[C@@H]21 | NCI-H23 lung | 86.9% (inactive)
CCOC(=O)C(Cc1ccc(OC)cc1)C(=O)OCC | NCI-H23 lung | 17.6% (inactive)
COc1ccc(/C=C(/C(=O)n2cnnn2)c2cc(OC)c(OC)c(OC)c2)cc1 | NCI-H23 lung | 41.8% (inactive)
NC(=O)c1cccc([C@@H]2O[C@H](CO)[C@@H](O)[C@H]2O)c1 | NCI-H23 lung | 63.7% (inactive)
CC(C)(C)n1cc(-c2ccnc(NCCCNS(=O)(=O)c3ccc(C(F)(F)F)cc3)c2)c(-c2cccc(F)c2)n1 | NCI-H23 lung | 82% (inactive)
COc1cc2c(c(OC)c1OC)C(=O)CC(c1cccc(NC(=O)c3ccc(C#N)cc3)c1)O2 (configuration not stated) | NCI-H23 lung | 70.6% (inactive)

----------
# Test system: ACHN renal
# PROTOCOL_DETAILS: NCI-60 one-dose screen, 48 h (100 = growth as untreated, 0 = no growth, -100 = all killed)
# RUN_CONDITIONS: 10 µM unless noted
About 83,000 compounds went through this panel and 20% of them were active in at least one assay; those are over-represented in the sample as a whole.
PROPERTY_LABEL: growth (%)

COMPOUND | RECORDED_NUMBER
C=CN(C(=O)N1CCN(c2cc3c(cc2F)c(=O)c(C(=O)O)cn3C2CC2)CC1)c1nc(-c2ccc(OC)cc2)cs1 | 23.6
CNC(=O)c1ccccc1Nc1nc(Nc2cc(OC)c(OC)c(OC)c2)ncc1Br | 12.5
COC(=O)CC[C@@H]1O[C@@H](c2ccc(F)cc2)[C@@H](O)[C@H]1O | 101
CCOC(=O)C1=C(C)C(Cl)=N/C1=C\c1[nH]c(Cl)c(C)c1C(=O)OCC | 107
N#Cc1c(-c2ccccc2)nc(SCC(O)CN2CCOCC2)nc1N1CCOCC1 (stereo not drawn) | 54.4
CC[C@]12C=CCN3CC[C@@]4(c5ccc(OC)cc5N(C)[C@H]4[C@@](O)(C(=O)OC)[C@@H]1OC(=O)CCC[P+](c1ccccc1)(c1ccccc1)c1ccccc1)[C@@H]32 | 89.9
O=[N+]([O-])c1cc(NS(=O)(=O)c2ccccc2)ccc1NS(=O)(=O)c1ccccc1 | 91.4
OCCNCCNC(Cc1ccc(Cl)cc1)c1ccccc1 (stereo not drawn) | 95.9
Clc1c(Cl)[n+](Cc2ccc3ccccc3c2)cn1Cc1ccc2ccccc2c1 | 84.7
O=C(C1=Cc2cc3ccccc3n2Cc2cnnn21)c1ccc(O)cc1 | 75.4
CC/C=C\C[C@H](O)C/C=C1/C(=O)C=C[C@@H]1C/C=C\CCCC(=O)O | 84.5
COC(=O)c1cc(Br)ccc1O | 99.5
COc1ccc2c(c1)/C(=N/c1n[nH]c(=S)s1)C(=O)N2 | 83.6

----------
# Tested on: SN12C renal
# PROTOCOL_DETAILS: NCI-60 one-dose screen, 48 h (100 = growth as untreated, 0 = no growth, -100 = all killed)
# RUN_CONDITIONS: 10 µM unless noted
About 83,000 compounds went through this panel and 20% of them were active in at least one assay; those are over-represented in the sample as a whole.
Label scheme for growth: lower than 90% is 0.0, 90% and above is 1.0.

SMILES_CODE | ASSAY_TARGET | CLASS_NAME
COc1ccc(C(=O)c2cc3c(N)c(C(=O)Nc4ccccc4)sc3nc2C)cc1 | SN12C renal | 0.0
N#Cc1c(Nc2ccc(N3CCOCC3)cc2)nc(SCC(=O)c2ccc(Br)cc2)nc1-c1ccccc1 | SN12C renal | 1.0
Cc1nc2cc(O)c(O)cc2cc1Oc1ccc(NC(=O)Nc2ccc(Cl)c(Cl)c2)cc1 | SN12C renal | 0.0
O=C(CSc1nc(-c2ccccc2)cc(=O)[nH]1)Nc1nc(-c2ccccc2)cs1 | SN12C renal | 1.0
CN(C)c1ccc(-c2nc(-c3ccccc3)c(-c3ccccc3)[nH]2)cc1 | SN12C renal | 1.0
O=c1c2ccccc2c(=O)c2c1sc1c(=O)c3ccc(O)cc3c(=O)c12 | SN12C renal | 0.0
CC(C)(C)c1cc(Cl)c(O)c(CNCCO)c1 | SN12C renal | 1.0

----------
# System: HCT-116 colon
# PROTOCOL_DETAILS: NCI-60 one-dose screen, 48 h (100 = growth as untreated, 0 = no growth, -100 = all killed)
# RUN_CONDITIONS: 10 µM unless noted
# Description: Growth inhibition of the HCT-116 human tumor cell line is measured as a screen for anti-cancer activity. Cells are grown in 96 well plates and exposed to the test compound for 48 hours. Compounds are tested at a single concentration, which is 10^-5 M for most compounds. The reported endpoint is percent growth (GI% or GIPRCNT), where numbers from 0 - 100% represent growth inhibition, and numbers from -100% - 0 represent cell death. For example, a value of 40 represents 60% growth inhibition. […]
The panel holds about 83,000 compounds, 20% with a hit somewhere; the sample as a whole holds those more often.
// values below are reported growth

COMPOUND | UOM | growth
Cn1c(=O)c2[nH]c(SCC(=O)Nc3ccc(C(=O)/C=C/c4ccccc4Cl)cc3)nc2n(C)c1=O | % | 58.5
CCn1cc(CNc2ccc(C(=O)Nc3cc4cc(OC)c(OC)cc4c(C)n3)cc2)cn1 | % | 46.8
COC1=C(C)C(=O)N2[C@@H]1[C@H](c1ccccc1)OC21C=CC(=O)C=C1 | % | -51
CC1CCN(C(=S)SCC(=O)NC(=O)c2ccccc2)CC1 | % | 109
Cn1c2c(c3ccc(Cl)c(Cl)c31)C(C#N)C(C)(C)NC2=O (stereo unspecified) | % | 76.9
O=C(CCCCCNC(=O)c1cc(=O)c(O)co1)Nc1ccccc1 | % | 97.6
CCO/C=N/C1=C(C#N)C(c2ccc(F)cc2)c2sc3c(F)cccc3c2O1 (stereo unspecified) | % | 39
C[C@H](C(=O)N(CCc1ccc(Cl)c(Cl)c1)Cc1cncs1)[C@@H]1CC[C@H](C[C@H](C)n2cc(CN3CCC(c4ccc(Cl)cc4)CC3)nn2)O1 | % | 92.5
COc1ccc(N2CCC(=S)NC2=S)cc1 | % | 104
[2H]C([2H])([2H])Oc1ccc(F)cc1/C=C/C(=O)/C=C(/C=C/c1cc(F)ccc1OC([2H])([2H])[2H])OB(F)F | % | 43.2
CC(C)N1C(=O)/C(=c2\sc3n(c2=O)C2C(NN=3)N(C)C(=O)N2C)c2ccccc21 (stereo unspecified) | % | 51.4

----------
# System: NCI-H322M lung
# PROTOCOL_DETAILS: NCI-60 one-dose screen, 48 h (100 = growth as untreated, 0 = no growth, -100 = all killed)
# RUN_CONDITIONS: 10 µM unless noted
The panel holds about 83,000 compounds, 20% with a hit somewhere; the sample as a whole holds those more often.
The label depends only on growth: satisfied if it is at least 60%, not satisfied if it is smaller.

SMILES_CODE | ASSAY_TARGET | CLASS_NAME
Cc1n[nH]c2ccc(Br)cc2c1=O | NCI-H322M lung | satisfied
O=C(O)c1ccc(-c2ccc(/C=N/Nc3nc(Nc4ccccc4)nc(N4CCCCC4)n3)o2)cc1 | NCI-H322M lung | not satisfied
CN1CCN(CC(=O)Nc2ccc3ncnc(Nc4ccc(Oc5cccc(C(F)(F)F)c5)c(Cl)c4)c3c2)CC1 | NCI-H322M lung | not satisfied
COc1cc(/C=N/Nc2ccc(Br)cc2)cc(OC)c1OC | NCI-H322M lung | satisfied
COc1cc(C2C(C(=O)OCc3ccccc3)=C(C)NC(C)=C2C(=O)OCc2ccccc2)cc(OC)c1OC | NCI-H322M lung | not satisfied
O=C(O)c1cn(C2CC2)c2cc(N3CCN(C(=O)Nc4nc(-c5ccc(Br)cc5)cs4)CC3)c(F)cc2c1=O | NCI-H322M lung | not satisfied
C#Cc1cccc(Nc2nc(C)nc3cc(NC(=O)CCl)ccc23)c1 | NCI-H322M lung | not satisfied
COc1ccc(/C=C/C(=O)c2cc3c(N)c(C(=O)Nc4cccc(Cl)c4C)sc3nc2C)cc1 | NCI-H322M lung | not satisfied
CCCCNc1cc(-c2cn[nH]c2-c2cc(C)cc(OC)c2)nc(-c2cccnc2)n1 | NCI-H322M lung | satisfied
C=C1C(=O)O[C@H]2[C@H]1CC/C(COC(=O)NCc1ccc(Cn3c(=O)sn(-c4ccc(C#N)cc4)c3=O)cc1)=C\CC[C@@]1(C)O[C@@H]21 | NCI-H322M lung | satisfied
COc1ccc2c(c1)CCc1[nH]nc(-c3cc(OC)c(OC)c(OC)c3)c1-2 | NCI-H322M lung | not satisfied
